This listing pairs compounds with measured pIC50.
Target: UniProt Q9Y233
Sequence (Q9Y233 whole entry): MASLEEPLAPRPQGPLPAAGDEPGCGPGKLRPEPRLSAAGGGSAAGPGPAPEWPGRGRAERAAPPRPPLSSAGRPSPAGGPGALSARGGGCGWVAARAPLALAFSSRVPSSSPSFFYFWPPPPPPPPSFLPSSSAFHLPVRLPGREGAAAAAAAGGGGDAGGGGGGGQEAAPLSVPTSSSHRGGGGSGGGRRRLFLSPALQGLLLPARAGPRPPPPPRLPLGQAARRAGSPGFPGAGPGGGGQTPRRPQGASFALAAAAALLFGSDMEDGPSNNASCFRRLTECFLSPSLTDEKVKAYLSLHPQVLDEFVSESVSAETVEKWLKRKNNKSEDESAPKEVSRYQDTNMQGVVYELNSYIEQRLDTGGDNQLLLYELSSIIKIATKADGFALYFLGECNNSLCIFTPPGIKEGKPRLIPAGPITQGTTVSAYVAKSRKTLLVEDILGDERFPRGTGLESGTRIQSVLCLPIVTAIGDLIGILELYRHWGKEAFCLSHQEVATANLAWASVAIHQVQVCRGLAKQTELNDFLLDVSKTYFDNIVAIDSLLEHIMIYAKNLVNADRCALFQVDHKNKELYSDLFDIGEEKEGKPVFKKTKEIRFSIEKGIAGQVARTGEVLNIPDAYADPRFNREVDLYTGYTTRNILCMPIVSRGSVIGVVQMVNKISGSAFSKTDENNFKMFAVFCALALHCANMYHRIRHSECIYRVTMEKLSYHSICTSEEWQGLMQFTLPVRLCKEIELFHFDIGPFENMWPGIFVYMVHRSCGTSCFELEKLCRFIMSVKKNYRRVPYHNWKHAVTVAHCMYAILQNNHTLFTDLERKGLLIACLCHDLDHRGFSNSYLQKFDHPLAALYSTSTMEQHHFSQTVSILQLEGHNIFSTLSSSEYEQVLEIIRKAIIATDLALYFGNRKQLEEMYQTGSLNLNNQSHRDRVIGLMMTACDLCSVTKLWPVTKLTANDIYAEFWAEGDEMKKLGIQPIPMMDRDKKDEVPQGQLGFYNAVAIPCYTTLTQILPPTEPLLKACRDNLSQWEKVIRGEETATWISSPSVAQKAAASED
Test: Measurement of PDE10A inhibitory activity-2 (PDE10A fraction prepared from MOLT-4 cells)
Format: biochemical
Conditions: PDE10A fraction from MOLT-4 cells (peak around 250 mM NaCl)
Protocol: A human acute lymphoblastic lymphoma T cell line MOLT-4 (which can be purchased under ATCC No. CRL-1582 from ATCC) was cultured in an RPMI1640 medium containing 10% fetal bovine serum to obtain 5×10^8 MOLT-4 cells. The cells were recovered by centrifugation and suspended in 10 ml of buffer solution A (25 mM Tris-HCl, 5 mM 2-mercaptoethanol, 2 mM benzamidine, 2 mM EDTA, and 0.1 mM 4-(2-aminoethyl)benzenesulfonyl hydrochloride, pH 7.5). […]
Counter-ions that a name gives are not always drawn.
Note: pIC50 values are expressed as the negative base-10 logarithm of concentration in M.

Observe how each entry below is paired with its result.
COCc1ccc(C(C)=O)c2sc(C(=O)Nc3cc(CN4CC(O)C4)c4ccccc4n3)c(C)c12 [Example 47, dihydrochloride]; 9.31
COCc1ccc(C(C)=O)c2sc(C(=O)Nc3ccc4c(C(=O)NN5CCCC5)cccc4n3)c(C)c12 [Example 94]; 8.92

Looking up COCc1ccc(C(=O)C(C)(C)C)c2sc(C(=O)Nc3cc(CN4CC[C@@H](O)C4)c4ccccc4n3)c(C)c12 [Example 58, dihydrochloride] , I see its pIC50 listed as 10.07

Looking up CC(=O)c1ccc(C(C)O)c2c(C)c(C(=O)Nc3cc(C(C)(C)O)c4ccccc4n3)sc12 (stereo not shown) [Example 9] , I see its pIC50 listed as 8.11

Looking up CC(=O)c1ccc(C(C)=O)c2c(C)c(C(=O)Nc3cc(CO)c4ccccc4n3)sc12 [Example 14] , I see its pIC50 listed as 9.05

Looking up COCc1ccc(C(C)=O)c2sc(C(=O)Nc3cc(C(=O)N4CC[C@@H](O)C4)c4ccccc4n3)c(C)c12 [Example 50] , I see its pIC50 listed as 8.59

Looking up COCc1ccc(C(C)=O)c2sc(C(=O)Nc3cc(CN4CCC(O)CC4)c4ccccc4n3)c(C)c12 [Example 36] , I see its pIC50 listed as 9.46

Looking up CCC(=O)c1ccc(C(C)=O)c2sc(C(=O)Nc3cc(C(C)(C)O)c4ccccc4n3)c(C)c12 [Example 10] , I see its pIC50 listed as 7.70

Looking up COCc1ccc(C(C)=O)c2sc(C(=O)Nc3ccc4c(C(C)O)cccc4n3)c(C)c12 (stereo not shown) [Example 76] , I see its pIC50 listed as 9.28

Looking up COCc1ccc(C(C)=O)c2sc(C(=O)Nc3ccc4c(C(=O)OC)cccc4n3)c(C)c12 [Example 92] , I see its pIC50 listed as 7.92
